Target system: ASGPR receptor on the cell surface (HepG2 cells) (Homo sapiens)
Construct: host or cells: HepG2
Sequence (P07306 whole entry): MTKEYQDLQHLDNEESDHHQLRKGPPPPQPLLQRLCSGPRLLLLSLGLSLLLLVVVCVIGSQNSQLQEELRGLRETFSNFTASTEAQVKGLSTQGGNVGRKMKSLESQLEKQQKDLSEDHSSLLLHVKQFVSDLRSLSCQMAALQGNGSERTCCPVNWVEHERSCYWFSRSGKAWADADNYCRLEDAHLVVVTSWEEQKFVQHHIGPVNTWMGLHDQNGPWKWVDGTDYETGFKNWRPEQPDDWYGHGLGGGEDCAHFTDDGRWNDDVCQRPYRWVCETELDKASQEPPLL
Sequence (P07307 whole entry partner): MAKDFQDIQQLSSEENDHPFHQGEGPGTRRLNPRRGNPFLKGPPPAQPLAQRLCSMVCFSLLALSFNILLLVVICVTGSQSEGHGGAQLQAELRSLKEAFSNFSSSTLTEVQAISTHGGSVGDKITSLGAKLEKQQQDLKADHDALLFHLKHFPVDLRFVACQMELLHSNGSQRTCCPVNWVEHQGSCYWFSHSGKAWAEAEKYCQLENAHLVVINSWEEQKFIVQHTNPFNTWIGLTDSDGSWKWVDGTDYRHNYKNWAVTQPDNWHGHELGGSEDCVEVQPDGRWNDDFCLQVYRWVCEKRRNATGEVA
Assay method text: Ternary complex formation assay (flow cytometry, HepG2)
Format: cell-based
Condition parameters: HepG2 cells, ternary complex formation; read-out: TCF EC50
Text: The ternary complex formation assay is designed to identify the concentration of Degrader required to form a complex between the degrader, a constant concentration of fluorescently-labeled antibody and the ASGPR receptor on the cell surface. The peak mean fluorescence intensity (MFI) occurs at the optimal degrader concentration for ternary complex formation. Sub-optimal concentrations of degrader (too much or too little) results in fewer complexes formed and a reduced […]. […]
pEC50: −log10 of the molar value.
Reported property: pEC50

Sample answers from the record:
compound="CC(C)C[C@@H]1NC(=O)[C@H](Cc2cnc[nH]2)NC(=O)[C@H](Cc2c[nH]c3ccccc23)NC(=O)[C@H](C)NC(=O)[C@@H]2CSSC[C@H](NC(=O)[C@H](Cc3c[nH]c4ccccc34)NC(=O)[C@H](C(C)C)NC(=O)[C@H](CC(C)C)NC(=O)[C@H](CCC(=O)O)NC(=O)CNC1=O)C(=O)N[C@@H]([C@@H](C)O)C(=O)N1CCC[C@@H]1C(=O)N1C[C@@H](NC(=O)C3CCC(C(=O)NC[C@H]4OC[C@H](Nc5cncc(C(F)(F)F)n5)[C@@H](O)[C@H]4O)CC3)C[C@H]1C(=O)N[C@@H](CC(=O)O)C(=O)N2 (stereo partly drawn)" reported_property=pEC50 test_result="< 6.00"
compound=O=C(CCOCC(COCCC(=O)NCCOCCOCCOCCOC[C@H]1OC[C@H](Nc2nccc(C(F)(F)F)n2)[C@@H](O)[C@H]1O)NC(=O)COCCOCCOCCNc1ccc([N+](=O)[O-])cc1[N+](=O)[O-])NCCOCCOCCOCCOC[C@H]1OC[C@H](Nc2nccc(C(F)(F)F)n2)[C@@H](O)[C@H]1O reported_property=pEC50 test_result="> 7.00"
compound=CC(C)C[C@@H]1NC(=O)[C@H](Cc2cnc[nH]2)NC(=O)[C@H](Cc2c[nH]c3ccccc23)NC(=O)[C@H](C)NC(=O)[C@@H]2CSSC[C@H](NC(=O)[C@H](Cc3c[nH]c4ccccc34)NC(=O)[C@H](C(C)C)NC(=O)[C@H](CC(C)C)NC(=O)[C@H](CCC(=O)O)NC(=O)CNC1=O)C(=O)N[C@@H]([C@@H](C)O)C(=O)N1CCC[C@@H]1C(=O)N1C[C@@H](NC(=O)COc3ccc(CC(=O)NC[C@H]4OC[C@H](Nc5cncc(C(F)(F)F)n5)[C@@H](O)[C@H]4O)cc3)C[C@H]1C(=O)N[C@@H](CC(=O)O)C(=O)N2 reported_property=pEC50 test_result="> 7.00"
compound=CC(C)C[C@@H]1NC(=O)[C@H](Cc2cnc[nH]2)NC(=O)[C@H](Cc2c[nH]c3ccccc23)NC(=O)[C@H](C)NC(=O)[C@@H]2CSSC[C@H](NC(=O)[C@H](Cc3c[nH]c4ccccc34)NC(=O)[C@H](C(C)C)NC(=O)[C@H](CC(C)C)NC(=O)[C@H](CCC(=O)O)NC(=O)CNC1=O)C(=O)N[C@@H]([C@@H](C)O)C(=O)N1CCC[C@@H]1C(=O)N1C[C@@H](NC(=O)CCCc3cn(C[C@H]4OC[C@H](Nc5cncc(C(F)(F)F)n5)[C@@H](O)[C@H]4O)nn3)C[C@H]1C(=O)N[C@@H](CC(=O)O)C(=O)N2 reported_property=pEC50 test_result="> 7.00"

Lab note: each compound below needs its pEC50 filled in.
1. CC(C)C[C@@H]1NC(=O)[C@H](Cc2cnc[nH]2)NC(=O)[C@H](Cc2c[nH]c3ccccc23)NC(=O)[C@H](C)NC(=O)[C@@H]2CSSC[C@H](NC(=O)[C@H](Cc3c[nH]c4ccccc34)NC(=O)[C@H](C(C)C)NC(=O)[C@H](CC(C)C)NC(=O)[C@H](CCC(=O)O)NC(=O)CNC1=O)C(=O)N[C@@H]([C@@H](C)O)C(=O)N1CCC[C@@H]1C(=O)N1C[C@@H](NC(=O)CCN3CCN(CC(=O)NC[C@H]4OC[C@H](Nc5cncc(C(F)(F)F)n5)[C@@H](O)[C@H]4O)CC3)C[C@H]1C(=O)N[C@@H](CC(=O)O)C(=O)N2
2. CC(C)C[C@@H]1NC(=O)[C@H](Cc2cnc[nH]2)NC(=O)[C@H](Cc2c[nH]c3ccccc23)NC(=O)[C@H](C)NC(=O)[C@@H]2CSSC[C@H](NC(=O)[C@H](Cc3c[nH]c4ccccc34)NC(=O)[C@H](C(C)C)NC(=O)[C@H](CC(C)C)NC(=O)[C@H](CCC(=O)O)NC(=O)CNC1=O)C(=O)N[C@@H]([C@@H](C)O)C(=O)N1CCC[C@@H]1C(=O)N1C[C@@H](NC(=O)c3ccc(N4CCC(CN5CCN(C[C@H]6OC[C@H](Nc7cncc(C(F)(F)F)n7)[C@@H](O)[C@H]6O)CC5)CC4)nn3)C[C@H]1C(=O)N[C@@H](CC(=O)O)C(=O)N2
3. CC(C)C[C@@H]1NC(=O)[C@H](Cc2cnc[nH]2)NC(=O)[C@H](Cc2c[nH]c3ccccc23)NC(=O)[C@H](C)NC(=O)[C@@H]2CSSC[C@H](NC(=O)[C@H](Cc3c[nH]c4ccccc34)NC(=O)[C@H](C(C)C)NC(=O)[C@H](CC(C)C)NC(=O)[C@H](CCC(=O)O)NC(=O)CNC1=O)C(=O)N[C@@H]([C@@H](C)O)C(=O)N1CCC[C@@H]1C(=O)N1C[C@H](NC(=O)COCCOCC(=O)NC[C@H]3OC[C@H](Nc4cncc(C(F)(F)F)n4)[C@@H](O)[C@H]3O)C[C@H]1C(=O)N[C@@H](CC(=O)O)C(=O)N2
4. CC(C)C[C@@H]1NC(=O)[C@H](Cc2cnc[nH]2)NC(=O)[C@H](Cc2c[nH]c3ccccc23)NC(=O)[C@H](C)NC(=O)[C@@H]2CSSC[C@H](NC(=O)[C@H](Cc3c[nH]c4ccccc34)NC(=O)[C@H](C(C)C)NC(=O)[C@H](CC(C)C)NC(=O)[C@H](CCC(=O)O)NC(=O)CNC1=O)C(=O)N[C@@H]([C@@H](C)O)C(=O)N1CCC[C@@H]1C(=O)N1C[C@@H](NC(=O)c3ccc(-c4ccc(C(=O)NC[C@H]5OC[C@H](Nc6cncc(C(F)(F)F)n6)[C@@H](O)[C@H]5O)cc4)cc3)C[C@H]1C(=O)N[C@@H](CC(=O)O)C(=O)N2
5. CC(C)C[C@@H]1NC(=O)[C@H](Cc2cnc[nH]2)NC(=O)[C@H](Cc2c[nH]c3ccccc23)NC(=O)[C@H](C)NC(=O)[C@@H]2CSSC[C@H](NC(=O)[C@H](Cc3c[nH]c4ccccc34)NC(=O)[C@H](C(C)C)NC(=O)[C@H](CC(C)C)NC(=O)[C@H](CCC(=O)O)NC(=O)CNC1=O)C(=O)N[C@@H]([C@@H](C)O)C(=O)N1CCC[C@@H]1C(=O)N1C[C@@H](NC(=O)CC(=O)NC[C@H]3OC[C@H](Nc4cncc(C(F)(F)F)n4)[C@@H](O)[C@H]3O)C[C@H]1C(=O)N[C@@H](CC(=O)O)C(=O)N2

["> 7.00", "> 7.00", "> 7.00", "6.00 to 6.30", "> 7.00"]
